Cited source: ChEMBL document CHEMBL4130363

TARGET OR SYSTEM: D(2) dopamine receptor (Homo sapiens) (UniProt P14416)
Sequence (P14416 whole entry): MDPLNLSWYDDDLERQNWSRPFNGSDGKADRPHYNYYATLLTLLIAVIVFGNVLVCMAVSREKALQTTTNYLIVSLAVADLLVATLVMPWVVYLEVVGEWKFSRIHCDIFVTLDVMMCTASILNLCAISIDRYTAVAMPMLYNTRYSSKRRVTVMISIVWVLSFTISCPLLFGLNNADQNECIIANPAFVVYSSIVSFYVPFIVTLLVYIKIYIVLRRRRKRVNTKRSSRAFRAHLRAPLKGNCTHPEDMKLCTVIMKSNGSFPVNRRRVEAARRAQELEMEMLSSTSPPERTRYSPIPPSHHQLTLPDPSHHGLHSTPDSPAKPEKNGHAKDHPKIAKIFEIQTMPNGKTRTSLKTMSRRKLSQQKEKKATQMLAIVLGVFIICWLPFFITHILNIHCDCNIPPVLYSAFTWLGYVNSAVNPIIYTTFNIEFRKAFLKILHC
MEASUREMENT DESCRIPTION: Antagonist activity at recombinant human dopamine D2L receptor assessed as inhibition of agonist-induced effect at 10 uM by GTPgamma[35S] binding-based assay
OUTCOME MEASURE: inhibition (%)

> print(dat)
                                        mol  number
1        COc1cccc(C(=O)NCCCN(C)Cc2ccccc2)c1      22
2        CN(CCCNC(=O)c1ccc(Br)cc1)Cc1ccccc1      31
3        CN(CCCNC(=O)c1cccc(Br)c1)Cc1ccccc1      49
4  CN(CCNC(=O)c1ccc([N+](=O)[O-])cc1)Cc1ccccc1      30
5         CN(CCNC(=O)c1ccc(Cl)cc1)Cc1ccccc1      90
6       CCCc1ccc(C(=O)NCCCN(C)Cc2ccccc2)cc1      22
7        COc1ccc(C(=O)NCCCN(C)Cc2ccccc2)cc1      13
8        CN(CCNC(=O)c1ccc(C#N)cc1)Cc1ccccc1      55
9       CN(CCCNC(=O)c1ccc(Cl)cc1)CCc1ccccc1      36

a. CN(CCCNC(=O)c1ccc([N+](=O)[O-])cc1)Cc1ccccc1
b. CN(CCCNC(=O)c1ccc(Cl)cc1)Cc1ccccc1
c. CN(CCCNC(=O)c1ccc(C(F)(F)F)cc1)Cc1ccccc1
# input List these items ordered by inhibition, big to small. Your answer should be the labels, listed in the requested order.
# output b, c, a
(b: 44%, c: 30%, a: 15%)

---

MEASUREMENT DESCRIPTION: n-Octanol-PBS buffer distribution coefficient, log D of the compound at pH 7.4
Format: physicochemical
OUTCOME MEASURE: logD
Format: numeric value only, no unit, no commentary.

# input Can you share its logD? I mean this compound: CN(CCCNC(=O)c1ccc(Cl)cc1)Cc1ccccc1
# output 2.51

---

TARGET OR SYSTEM: Alpha-2A adrenergic receptor (Homo sapiens) (UniProt P08913)
Sequence (P08913 whole entry): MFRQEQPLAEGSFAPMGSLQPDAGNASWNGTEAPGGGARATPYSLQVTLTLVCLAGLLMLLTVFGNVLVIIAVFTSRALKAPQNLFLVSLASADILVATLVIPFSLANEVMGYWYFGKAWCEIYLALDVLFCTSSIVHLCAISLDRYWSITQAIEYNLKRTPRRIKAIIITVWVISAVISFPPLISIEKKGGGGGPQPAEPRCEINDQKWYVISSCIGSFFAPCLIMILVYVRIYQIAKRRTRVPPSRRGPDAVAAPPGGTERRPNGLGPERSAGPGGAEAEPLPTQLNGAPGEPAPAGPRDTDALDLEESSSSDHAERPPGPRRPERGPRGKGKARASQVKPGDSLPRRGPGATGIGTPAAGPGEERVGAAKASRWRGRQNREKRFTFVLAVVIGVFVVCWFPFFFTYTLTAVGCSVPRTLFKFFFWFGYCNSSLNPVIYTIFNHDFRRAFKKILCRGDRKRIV
MEASUREMENT DESCRIPTION: Antagonist activity at recombinant human alpha-2a adrenergic receptor assessed as inhibition of agonist-induced effect at 10 uM by GTPgamma[35S] binding-based assay
Type: functional
OUTCOME MEASURE: inhibition (%)

> print(dat)
                                        mol  number
1  CN(CCCNC(=O)c1ccc([N+](=O)[O-])cc1)Cc1ccccc1      25
2        COc1ccc(C(=O)NCCCN(C)Cc2ccccc2)cc1      23
3  CN(CCCNC(=O)c1ccc(C(F)(F)F)cc1)Cc1ccccc1      49
4        CN(CCCNC(=O)c1ccc(Cl)cc1)Cc1ccccc1      50
5       CN(CCCNC(=O)c1ccc(Cl)cc1)CCc1ccccc1     105

I. CCCc1ccc(C(=O)NCCCN(C)Cc2ccccc2)cc1
II. CN(CCCNC(=O)c1cccc(Br)c1)Cc1ccccc1
# input Smaller inhibition value, I vs II ? Output the label that corresponds to your choice.
# output I
(I: 37%, II: 57%)

---

TARGET OR SYSTEM: 5-hydroxytryptamine receptor 7 (Homo sapiens)
MEASUREMENT DESCRIPTION: Antagonist activity at recombinant human 5-HT7R assessed as inhibition of agonist-induced cAMP induction at 10 uM by HTRF assay
Format: functional
OUTCOME MEASURE: inhibition (%)

Check out these entries, answers already filled in.
> print(dat)
                                        mol                          target.or.system  number
1       CCCc1ccc(C(=O)NCCCN(C)Cc2ccccc2)cc1  5-hydroxytryptamine receptor 7 (Homo sapiens)       2
2        CN(CCCNC(=O)c1ccc(Cl)cc1)Cc1ccccc1  5-hydroxytryptamine receptor 7 (Homo sapiens)      -1
3        COc1cccc(C(=O)NCCCN(C)Cc2ccccc2)c1  5-hydroxytryptamine receptor 7 (Homo sapiens)      -3
4  CN(CCNC(=O)c1ccc([N+](=O)[O-])cc1)Cc1ccccc1  5-hydroxytryptamine receptor 7 (Homo sapiens)      -2
5        COc1ccc(C(=O)NCCCN(C)Cc2ccccc2)cc1  5-hydroxytryptamine receptor 7 (Homo sapiens)      -5

1. CN(CCCNC(=O)c1cccc(Br)c1)Cc1ccccc1
2. CN(CCCNC(=O)c1ccc(C(F)(F)F)cc1)Cc1ccccc1
# input Task for the reader: decide whether 1 or 2 has the larger inhibition. Output the label that corresponds to your choice.
# output 1

1. CN(CCNC(=O)c1ccc(C#N)cc1)Cc1ccccc1
2. CN(CCCNC(=O)c1ccc(Br)cc1)Cc1ccccc1
# input Smaller inhibition value, 1 vs 2 ? Output the label that corresponds to your choice.
# output 1
(1: -2%, 2: 0%)

---

TARGET OR SYSTEM: Alpha-2B adrenergic receptor (Homo sapiens) (UniProt P18089)
Sequence (P18089 whole entry): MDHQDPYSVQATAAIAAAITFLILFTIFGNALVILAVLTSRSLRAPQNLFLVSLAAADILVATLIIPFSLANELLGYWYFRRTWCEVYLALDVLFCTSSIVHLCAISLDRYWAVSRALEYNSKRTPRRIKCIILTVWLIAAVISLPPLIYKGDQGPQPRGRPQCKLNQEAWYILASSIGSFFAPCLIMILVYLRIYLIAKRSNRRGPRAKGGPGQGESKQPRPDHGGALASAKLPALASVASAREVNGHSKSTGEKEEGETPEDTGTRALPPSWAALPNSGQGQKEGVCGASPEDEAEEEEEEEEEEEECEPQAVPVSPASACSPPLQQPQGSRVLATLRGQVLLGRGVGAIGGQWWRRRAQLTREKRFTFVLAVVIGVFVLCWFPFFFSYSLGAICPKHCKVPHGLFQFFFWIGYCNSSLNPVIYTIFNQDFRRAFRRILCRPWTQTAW
MEASUREMENT DESCRIPTION: Antagonist activity at recombinant human alpha-2b adrenergic receptor assessed as inhibition of agonist-induced effect at 10 uM by GTPgamma[35S] binding-based assay
Assay type: functional
OUTCOME MEASURE: inhibition (%)

a. CCCc1ccc(C(=O)NCCCN(C)Cc2ccccc2)cc1
b. COc1ccc(C(=O)NCCCN(C)Cc2ccccc2)cc1
c. CN(CCCNC(=O)c1ccc(Cl)cc1)CCc1ccccc1
# input Rank the listed molecules, smallest inhibition first and largest last. Your answer should be the labels, listed in the requested order.
# output b, a, c

A. COc1cccc(C(=O)NCCCN(C)Cc2ccccc2)c1
B. CN(CCNC(=O)c1ccc(C#N)cc1)Cc1ccccc1
# input Task for the reader: decide whether A or B has the larger inhibition. Output the label that corresponds to your choice.
# output B
(B: 40%, A: 27%)

---

TARGET OR SYSTEM: 5-hydroxytryptamine receptor 7 (Homo sapiens)
MEASUREMENT DESCRIPTION: Agonist activity at recombinant human 5-HT7R assessed as induction of cAMP levels at 10 uM by HTRF assay relative to agonist
Assay type: functional
OUTCOME MEASURE: Activity (%)

> print(dat)
                                        mol                          target.or.system  outcome.measure  number
1  CN(CCNC(=O)c1ccc([N+](=O)[O-])cc1)Cc1ccccc1  5-hydroxytryptamine receptor 7 (Homo sapiens)         Activity      26
2         CN(CCNC(=O)c1ccc(Cl)cc1)Cc1ccccc1  5-hydroxytryptamine receptor 7 (Homo sapiens)         Activity      46
3        CN(CCCNC(=O)c1ccc(Cl)cc1)Cc1ccccc1  5-hydroxytryptamine receptor 7 (Homo sapiens)         Activity      19
4  CN(CCCNC(=O)c1ccc(C(F)(F)F)cc1)Cc1ccccc1  5-hydroxytryptamine receptor 7 (Homo sapiens)         Activity      33

a. CN(CCNC(=O)c1ccc(C#N)cc1)Cc1ccccc1
b. CN(CCCNC(=O)c1ccc(Cl)cc1)CCc1ccccc1
# input Task for the reader: decide whether a or b has the larger Activity. Output the label that corresponds to your choice.
# output b
(b: 130%, a: 2%)

---

TARGET OR SYSTEM: Substance-K receptor (Homo sapiens) (UniProt P21452)
Sequence (P21452 whole entry): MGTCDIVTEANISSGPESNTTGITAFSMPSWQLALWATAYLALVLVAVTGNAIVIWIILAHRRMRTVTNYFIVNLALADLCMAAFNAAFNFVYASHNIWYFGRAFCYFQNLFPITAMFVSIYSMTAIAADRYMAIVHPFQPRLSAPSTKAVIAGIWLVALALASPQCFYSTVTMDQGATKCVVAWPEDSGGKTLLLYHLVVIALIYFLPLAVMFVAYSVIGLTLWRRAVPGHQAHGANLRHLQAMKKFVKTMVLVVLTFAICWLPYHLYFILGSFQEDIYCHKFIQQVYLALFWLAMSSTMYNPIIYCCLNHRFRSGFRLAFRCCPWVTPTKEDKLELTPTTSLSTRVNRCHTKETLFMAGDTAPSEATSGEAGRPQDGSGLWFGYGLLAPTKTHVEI
MEASUREMENT DESCRIPTION: Antagonist activity at recombinant human NK2R assessed as inhibition of agonist-induced effect at 10 uM by aequorin reporter based assay
Format: functional
OUTCOME MEASURE: inhibition (%)

Check out these entries, answers already filled in.
> print(dat)
                                   mol  number
1    CN(CCNC(=O)c1ccc(Cl)cc1)Cc1ccccc1       6
2   CN(CCCNC(=O)c1ccc(Br)cc1)Cc1ccccc1       7
3   COc1cccc(C(=O)NCCCN(C)Cc2ccccc2)c1      19
4  CCCc1ccc(C(=O)NCCCN(C)Cc2ccccc2)cc1       5
5   COc1ccc(C(=O)NCCCN(C)Cc2ccccc2)cc1      22

P. CN(CCCNC(=O)c1ccc([N+](=O)[O-])cc1)Cc1ccccc1
Q. CN(CCNC(=O)c1ccc([N+](=O)[O-])cc1)Cc1ccccc1
# input Task for the reader: decide whether P or Q has the larger inhibition. Output the label that corresponds to your choice.
# output Q

1. CN(CCCNC(=O)c1cccc(Br)c1)Cc1ccccc1
2. CN(CCCNC(=O)c1ccc(C(F)(F)F)cc1)Cc1ccccc1
3. CN(CCCNC(=O)c1ccc(Cl)cc1)Cc1ccccc1
4. CN(CCNC(=O)c1ccc(C#N)cc1)Cc1ccccc1
# input Which order do these items take when sorted by rising inhibition? List them. Your answer should be the labels, listed in the requested order.
# output 2, 1, 3, 4
(2: 6%, 1: 9%, 3: 18%, 4: 29%)
